Values from patent US20240376185A1

Provide the reported absorbance at 450 nm of each item.
target-or-test-system: horse IgG Fab fragment
method-summary: ELISA, coated antigen, E. coli supernatant
// return numeric value only (unit: A450, not printed)

Problem: Tell me the measured absorbance at 450 nm of SVG24 (VHH, not shown: large carriers) VHH: QVQLQQSGGGLVQAGGSLRLSCAASGRTFSTYNIAWFRQAPGKEREFVTAITWGSGNTYYADSVKGRFTISRDNAKNTVFLQMNSLKPDDTAVYYCAARRSLGPTMAFAYEYWGQGTQVTVSS , please.
Result: 0.06

Problem: Tell me the measured absorbance at 450 nm of SVG13 (VHH) VHH: QVQLQESGGGLVQPGGSLRLSCEASGFTFDDYGMSWVRQAPGKGLEWVSSLTPNGGSTYYADSVKGRFTISRDNAKNTLYLQMNSLKPEDTALYYCAKNSYYGAMDYWGKGTLVTVSS , please.
Result: 0.222

Problem: Tell me the measured absorbance at 450 nm of SVG07 (VHH, not shown: large carriers) VHH: QVQLQESGPGLVKPSQTLSLTCTVSGGSITTTAYAWSWIRQPPGKGLEWMGAIRFDGTTDYSPSLKSRISISRDTSNNQFSLRMSSVTPEDTAVYYCARYGVVSDHGGLDYWGQGTQVTVSS , please.
Result: 0.152

Problem: Tell me the measured absorbance at 450 nm of SVG18 (VHH, not shown: large carriers) VHH: QVQLQQSGGGLVQPGGSLRLSCAASGFTFSSYAMSWVRQAPGKGLEWVSAINSGGDIISYADSVKGRFTISRDNAKNTLYLQMNSLKPEDTAVYYCAKSPIVRTYGGYDYWGQGTQVTVSS , please.
Result: 0.32

Problem: Tell me the measured absorbance at 450 nm of SVG23 (VHH, not shown: large carriers) VHH: QVQLQESGGGLVQAGGSLRLSCAASGRAFGSYTMNWFRQAPGKERDFVAGIMSSGMNTWYADSVKGRFTISRDNAKNTVYLQMNSLKPEDTAVYYCASRPRSTMTSGRYLYDYWGQGTQVTVSS , please.
Result: 0.056

Problem: Tell me the measured absorbance at 450 nm of SVG19 (VHH, not shown: large carriers) VHH: QVQLQQSGGGLVQPGGSLRLSCAASGFTFSSYAMSWVRQAPGKGLEWVSAINSGGGSTSYADSVKGRFTISRDNAKNTLYLQMNSLKPEDTAVYYCAKDFDPWGVGTGGYDYWGQGTQVTVSS , please.
Result: 0.472

Problem: Tell me the measured absorbance at 450 nm of SVG03 (VHH, not shown: large carriers) VHH: QVQLQESGGGLVQAGGSLRLSCAASGRTFSNYVMGWFRQAPGKEREFVSAISWNGVSTFYADSVKGRFTISRDNAKNTVYLQMNSLKPEDTAVYYCAADERFVVRYNYWGQGTQVTVSS , please.
Result: 0.057

Problem: Tell me the measured absorbance at 450 nm of SVG06 (VHH) VHH: QVQLQESGGALVQPGGSLRLSCAASGFPFSAYDMTWVRQAPGQGLEWVSTIHKSGGITTYADSVKGRFTISRDNAKNTLYLQMNNLESEDTAVYYCAKALRAHNSDYVGRNALGSWGEGTLVTVSS , please.
Result: 0.089
